- Experimental Target: Heparin
- Test Details: Binding affinity to heparin (unknown origin) assessed as apparent dissociation constant by fluorescence emission titration method
- Parameters: species or system Homo sapiens
- Assay Context: read-out: Kd(app)
Quantity: Kd (µM)
Hi! Could you send only the number? It should be in µM, unit omitted.

Query: Fill in Kd for `Oc1ccccc1CNCCCNCCCCNCCCNCc1ccc2c(c1)Cc1ccccc1-2` tested with Heparin.
Reply: 0.5

----------
- Experimental Target: Heparin
- Test Details: Binding affinity to heparin (unknown origin) assessed as apparent dissociation constant by ITC assay
- Parameters: species or system Homo sapiens
- Assay Context: read-out: Kd(app)
Quantity: Kd (µM)

P: Oc1ccccc1CNCCCNCCCCNCCCNCc1ccccc1O
Q: Oc1ccccc1CNCCCNCCCCNCCCNCc1cccc2ccccc12
Query: // select label with min value of measured Kd from [ P , Q ] Write the label of whichever entry you select.
Reply: Q
(Q: 1.3 µM, P: 22.5 µM)
